The measured values listed here are drawn from PubChem BioAssay (NCI).

- Tested on: HOP-62 NSCLC
- experimental.protocol: NCI-60 one-dose screen, 48 h (100 = growth as untreated, 0 = no growth, -100 = all killed)
- study.conditions: 10 µM unless noted
The panel holds about 83,000 compounds, 20% with a hit somewhere; the sample as a whole holds those more often. Calls of active or inactive are those of the source. How the source made its calls: active means growth percent below 10; inactive means the rest.
measurement.name: growth

CCC(c1ccc(OC)cc1)C(CC)c1ccc(O)c(CN2CCCC2)c1 (configuration not stated)    30.9% (inactive)
COC(=O)CCCCCN=Cc1c(O)c(O)c(C(C)C)c2cc(C)c(-c3c(C)cc4c(C(C)C)c(O)c(O)c(C=NCCCCCC(=O)OC)c4c3O)c(O)c12    18.8% (inactive)
O=C(CN1CCN(c2cc3c(cc2F)c(=O)c(C(=O)O)cn3C2CC2)CC1)Nc1ccc(C(=O)/C=C/c2ccc(Cl)cc2)cc1    107% (inactive)
O=C(COc1ccccc1)N1N=C(c2ccc(Cl)cc2)CC1c1c[nH]c2ccccc12 (configuration not stated)    66.6% (inactive)
Nc1c(C(=O)Nc2cccc(Cl)c2Cl)sc2nc3c(cc12)C(=O)CCC3    95.3% (inactive)
CCCn1c(=S)sc2c(Cl)nc(C)nc21    104% (inactive)
COc1cccc(C2CC(=O)Nc3c2c(C)nn3-c2nc3ccccc3[nH]2)c1OC (configuration not stated)    57.4% (inactive)
COc1ccc(C2=CC(c3ccc(Oc4ccnc5cc(Cl)ccc45)c(OC)c3)c3c(nc(OC)[nH]c3=O)N2)cc1 (configuration not stated)    81.8% (inactive)
C=CCn1c(C)nc2ccc(Nc3nc(Nc4ccc(F)cc4)nc4ccccc34)cc21    75.9% (inactive)
Cc1cc(C)c(S(=O)(=O)N2CCN(c3cc4c(cc3F)c(=O)c(C(=O)O)cn4C3CC3)CC2)c(C)c1    57.3% (inactive)
Cc1ccc(S(=O)(=O)NCCCNc2nccc(-c3c(-c4ccccc4)nc4sccn34)n2)cc1    124% (inactive)
Cc1ccccc1C(=O)c1ccccc1C(=O)O    106% (inactive)
COc1ccc(-c2nnc(COc3ccc(NC(=O)Nc4ccc(Cl)c(C(F)(F)F)c4)cc3F)o2)cc1    36.4% (inactive)
O=Nc1c(-c2c(O)[nH]c3ccc([N+](=O)[O-])cc23)[nH]c2ccc(O)cc12    -9.77% (active)
CN(C)c1ncc(-c2ccc(C(F)(F)F)cc2)c(NC2CCCCCC2)n1    88.2% (inactive)
CC(=O)/C=C/c1cc2cc(Cl)ccc2[nH]c1=O    68% (inactive)
CN=S(=O)(NC(=O)c1ccc(Cl)cc1Cl)c1ccc(Br)s1 (configuration not stated)    105% (inactive)
